- Test system: HCC-2998 colon
- TEST_METHOD_NOTES: NCI tumour cell line growth inhibition, 48 h
EXPERIMENTAL_READOUT: TGI (µM)
Answers are plain numbers, in µM.

Study these solved cases before continuing.
CCOC(=O)N1CCC(N=C2CSc3nnc(-c4cc(C(F)(F)F)cc(C(F)(F)F)c4)n3N2)CC1 = 4.78
N#CC1=C(O)NC(O)=C(C#N)C1c1c(Cl)cccc1Cl = 60
COc1ccc2c3ccnc(C(F)(F)F)c3n(CCCCN)c2c1 = 16.7
COCC(C#N)NC1CC(OC2CC(O)(C(=O)CO)Cc3c(O)c4c(c(O)c32)C(=O)c2c(OC)cccc2C4=O)OC(C)C1O (stereo unspecified) = 0.471

Ask: # get_value(readout='TGI', item= "O=c1oc2ccccc2c(O)c1C(c1ccc(OCc2ccccc2)cc1)c1c(O)c2ccccc2oc1=O" )
Reply: 96.9

###

- System: KM12 colon
- TEST_METHOD_NOTES: NCI tumour cell line growth inhibition, 48 h
Hi there, I'd appreciate the recorded TGI for every entry that follows.

Batch of 5 molecules: report TGI for each.
1. COC(=O)N[C@@H]1C[C@H]2CC[C@]1(O[Si](C(C)C)(C(C)C)C(C)C)C(=O)C2
2. CCCCCCCCCCCC(=O)N(CCCCCCCCC)CC(O)C(O)C(OC1OC(CO)C(O)C(O)C1O)C(O)CO (stereo not given)
3. Oc1ccc(-c2nc3cc(C(F)(F)F)ccc3s2)cc1
4. Cc1nc(N)c(N2CCN(S(=O)(=O)N(Cc3ccccc3)Cc3ccccc3)CC2)c(=O)[nH]1
5. N#Cc1ccc(-c2ccc(Cl)cc2)n(C2OC(CO)C(O)C(O)C2O)c1=S (stereo not given)

Reply:
1. 52.1 µM
2. 31.2 µM
3. 27.8 µM
4. > 100 µM
5. > 100 µM

Batch of 5 molecules: report TGI for each.
1. Cc1ccc(NC(=O)COc2ccc(Cl)cc2)cc1Cl
2. COC(=O)C1=C(C)NC(=S)NC1c1ccc(N(CCCl)CCCl)cc1Cl (stereo not given)
3. NC1CC(=O)c2c(-c3cccs3)sc(-c3cccs3)c21 (stereo not given)
4. CCOc1ccccc1N=NC1C(=O)N(C(=O)CC(=O)Nc2ccccc2C)N=C1C (stereo not given)
5. COC1(OC)CC(CO)(COc2cc(Cl)nc(N)n2)C1

Reply:
["> 100 µM", "> 73.4 µM", "> 100 µM", "> 100 µM", "> 100 µM"]

###

- Tested on: HT29 colon
- TEST_METHOD_NOTES: NCI tumour cell line growth inhibition, 48 h
Hi there, I'd appreciate the recorded TGI for every entry that follows.
Give bare numbers, in µM.

Batch of 3 compounds: report TGI for each.
1. NS(=O)(=O)c1ccc(-n2nc3c(c2-c2cccs2)Cc2ccccc2-3)cc1
2. Cc1nc(N)c(N2CCN(S(=O)(=O)N(Cc3ccccc3)Cc3ccccc3)CC2)c(=O)[nH]1
3. CC(NNC(=S)N1CCN(c2ccccn2)CC1)c1nccc2ccccc12 (stereo unspecified)

Reply:
1. 59.4
2. 63.3
3. 19.1

###

- System: LOX IMVI melanoma
- TEST_METHOD_NOTES: NCI tumour cell line growth inhibition, 48 h
Hi there, I'd appreciate the recorded TGI for every entry that follows.

Study these solved cases before continuing.
CN(C(=O)C(C)(C)C)c1ccccc1I(=O)=O = > 100 µM
COc1cc2[nH]c3c(c2cc1OC)CCN[C@@]31CC[C@@]2(CC3c4c(cc(OC)c(O)c42)CCN3C)C[C@@H]1OC (stereo not given in full) = 41.4 µM
CCCCCCCCCC1CC(=O)OC2=C1C(=O)CCC2 (stereo not given) = > 100 µM

Batch of 2 compounds: report TGI for each.
1. CC1=C(CCC(C)CO)O[C@H]2C[C@H]3[C@@H]4CC[C@H]5C[C@@H](O)CC[C@]5(C)[C@H]4CC(=O)[C@]3(C)[C@@H]12 (stereo not given in full)
2. CC(C)(C)OC(=O)N1C(=O)C2CCCC21 (stereo not given)

Reply:
1: 33.8 µM; 2: > 100 µM

###

- System: IGROV1 ovarian
- TEST_METHOD_NOTES: NCI tumour cell line growth inhibition, 48 h
EXPERIMENTAL_READOUT: TGI

Study these solved cases before continuing.
O=C(Nc1ccc(Br)cc1)C(=O)C(C(=O)c1ccc(Cl)c(Cl)c1)C1OC(=O)c2ccccc21 (stereo not given) = 42.8 µM
Cn1nc(C(F)(F)F)cc1-c1cc(Cl)c(OCc2ccc(Cl)cc2)c(-c2ccc(Cl)c(C(F)(F)F)c2)c1O = 6.42 µM
CC12CCC(C1)C(C)(C)C2OC(=O)c1ccccc1N (stereo not given) = 40.5 µM
Nc1nc(N)c2c(ccc3c2ccn3Cc2cccc([N+](=O)[O-])c2)n1 = 0.0255 µM

Ask: Query for IGROV1 ovarian: what TGI does the record show for "COc1nn(C)cc1Nc1nccc(-c2c[nH]c3c(NC(=O)[C@@H](C)N4CCN(C)CC4)cccc23)n1" ?
Reply: > 100 µM

###

- Tested on: SR leukemia
- TEST_METHOD_NOTES: NCI tumour cell line growth inhibition, 48 h
EXPERIMENTAL_READOUT: TGI

Study these solved cases before continuing.
O=C1c2ccccc2C(=O)N1CC#CCO = > 100 µM
C=CCC1(CN(C)C)CC/C(=C\c2ccc3c(c2)OCO3)C1=O (centres undefined) = > 100 µM
O=C1CCC2(O)c3ccccc3C2Cc2ccccc21 (centres undefined) = > 100 µM
Cc1cc(OCc2ccc(C(F)(F)F)cc2)c2c(c1)C(=O)C=C(NCCN1CCCC1)C2=O = 6.97 µM
CC1(C)CCC2=C(O1)c1ccccc1C(=Nc1ccc([N+](=O)[O-])cc1)C2=O = 37.7 µM
N#CC1=C(O)NC(O)=C(C#N)C1c1c(Cl)cccc1Cl = > 100 µM

Batch of 2 molecules: report TGI for each.
1. CC(=O)/C=C(/C)[O-].CC(=O)/C=C(/C)[O-].CC(=O)[CH-]C(C)=O.CC(=O)[CH-]C(C)=O.[Zr+4]
2. CC1(C)OCC2OC(n3cnc4c(N)nc(Cl)nc43)C(OS(C)(=O)=O)C2O1 (centres undefined)

Reply:
1. > 100 µM
2. > 100 µM

Ask: # get_value(readout='TGI', item= "O=C1C(c2ccccc2)=C(c2ccccc2)C1(Cl)Cl" )
Reply: 4.82 µM

###

- System: 786-0 renal
- TEST_METHOD_NOTES: NCI tumour cell line growth inhibition, 48 h
Hi there, I'd appreciate the recorded GI50 for every entry that follows.

Study these solved cases before continuing.
CCN1CCN(c2ccc(NC(=O)Nc3nc4ccc(-c5ccccc5OC)cc4s3)cc2)CC1 = 1800 nM
COC(=O)Nc1nc2ccc(C(=O)c3cccc(I)c3)cc2[nH]1 = 84.8 nM
Nc1nc(N)c2c(ccc3c2ccn3Cc2cccc([N+](=O)[O-])c2)n1 = 41.1 nM
NS(=O)(=O)c1ccc(-n2nc3c(c2-c2cccs2)Cc2ccccc2-3)cc1 = 17100 nM

Ask: # get_value(readout='GI50', item= "C=CCc1c(O)c(C(=O)/C=C/c2ccc(Cl)cc2)c(OC)c2ccoc12" )
Reply: 4830 nM

###

Hi there, I'd appreciate the recorded TGI for every entry that follows.
- Test system: CAKI-1 renal
- TEST_METHOD_NOTES: NCI tumour cell line growth inhibition, 48 h
Answers are plain numbers, in µM.

CC1(C)CCC2=C(O1)c1ccccc1C(=Nc1ccc([N+](=O)[O-])cc1)C2=O = 32.2
CCOC(=O)N1CCC(N=C2CSc3nnc(-c4cc(C(F)(F)F)cc(C(F)(F)F)c4)n3N2)CC1 = 5.97

Batch of 7 compounds: report TGI for each.
1. N=C(N)SCc1nc(-c2ccc(Cl)cc2)no1
2. COC(=O)CC[C@@H](C)[C@H]1CC[C@H]2[C@@H]3CC[C@@H]4C[C@H](O)CC[C@]4(C)[C@H]3CC[C@]12C
3. COc1cc(/C=C2\[C@@H]3NC(Cc4c(OC)c(C)c(OC)c(OC)c43)C(=O)N2Cc2ccccc2)c(OC)c(C)c1OC
4. CC1(C)C2CC3C(C)(C2)C31c1cc(Cl)ccc1N (centres undefined)
5. Cc1cc(I)cc(CN(C)CCCN2CCC(C)CC2)c1O
6. CCOP(=O)(OCC)C(Nc1ccc(Cl)cc1)c1ccc(F)cc1 (centres undefined)
7. Oc1ccc(-c2nc3cc(C(F)(F)F)ccc3s2)cc1

Reply:
27.4
34.1
89
29.1
28.7
83.6
29.1

###

Hi there, I'd appreciate the recorded GI50 for every entry that follows.
- System: M14 melanoma
- TEST_METHOD_NOTES: NCI tumour cell line growth inhibition, 48 h

Study these solved cases before continuing.
C[C@@H]1CC[C@@H]2[C@@H]1[C@H](OC(=O)/C=C/C1CCCCC1)[C@]1(C3CCCCC3)C[C@@H](OC(=O)CO)[C@@]2(C)O1 = 14.8 µM
O=C1C=CC2C3C(=O)N(c4ccccc4)C(=O)C3C1N2Cc1ccccc1 (stereo unspecified) = 2.6 µM
CC1=CC(C)=N/C(=N/S(=O)(=O)c2cc(C)c(Cl)cc2SCc2ccccc2)NN1 = > 100 µM

Batch of 4 compounds: report GI50 for each.
1. CCOC(=O)N1CCC(N=C2CSc3nnc(-c4cc(C(F)(F)F)cc(C(F)(F)F)c4)n3N2)CC1
2. Nc1nc(-c2ccc3c(c2)/C(=C\c2cc(Br)c(O)c(Br)c2)C(=O)N3)cs1
3. O=C(Nc1ccc(Cl)c(Cl)c1)c1ccc(NC2=C(Cl)C(=O)N(Cc3ccccc3)C2=O)cc1
4. Nc1nc(N)c2c(ccc3c2ccn3Cc2cccc([N+](=O)[O-])c2)n1

Reply:
1.95 µM
5.02 µM
17.1 µM
0.00865 µM

Batch of 4 compounds: report GI50 for each.
1. CCN(CC)CCOc1nc2ccccc2c2c1-c1ccc(OC)cc1C2=O
2. COc1cc2ncnc(Oc3ccc(NC(=O)Nc4ccc(CN5CCOCC5)c(C(F)(F)F)c4)c4ccccc34)c2cc1OC
3. CC(=O)C1=C(C)N(Cc2ccccc2)C2(O)C=CC(=O)C3=C(O)c4ccccc4C(=O)C312 (stereo unspecified)
4. NC1CC(=O)c2c(-c3cccs3)sc(-c3cccs3)c21 (stereo unspecified)

Reply:
1.36 µM
0.935 µM
3.18 µM
37.3 µM
